SUBJECT_OF_TEST: Mannose-6-phosphate isomerase (Homo sapiens)
ASSAY_REMARKS: MPI inhibition at elevated mannose 6-phosphate – biochemical, fluorescence intensity, high mannose 6-phosphate, primary screen (AID 1220)
CONDITION: recombinant PMI enzyme, coupled fluorescence intensity; at 20 µM; hits give high values
Among all 190,000 compounds or so, about 1,300 (0.68%) were called active. For the sample, actives were picked, then their nearest neighbours and some compounds at random.
Label Fulfilled for high-side inhibition (at or above 10%) and Not fulfilled for low-side inhibition (below it).

COc1ccc(O[C@H]2C=C[C@@H](c3ccccc3)O[C@@H]2COC(=O)CC/C(C)=N/OC[C@@H](O)COCc2ccco2)cc1 | Fulfilled
COCCCn1c(=N)c(C(=O)NCC2CCCO2)cc2c(=O)n3cccc(C)c3nc21 (stereo not given) | Fulfilled
Cn1nc(-c2ccc(C(=O)O)cc2)c2ccccc2c1=O | Not fulfilled

Problem: Check this compound for inhibition at or above 10%: CCCn1c(=N)c(C(=O)NCC2CCCO2)cc2c(=O)n3cccc(C)c3nc21 (stereo not given)
Solution: Fulfilled

Problem: What do you have for N#Cc1ccc(C(=O)Nc2cc(S(=O)(=O)N3CCCC3)ccc2OCC(F)(F)F)cc1 ?
Solution: Not fulfilled

Recorded values, source PubChem BioAssay AID1220.
